Below, each of the substances is paired with its reported Tm value.
assay: melting temperature; UV melt of duplexes; conditions: sodium 0.12 M; strand 2 µM
Remember to quote the unit after the number.

Past entries and their recorded results:
Substance | Tm
TGATTCTACCTATGTGATTT+AAATCACATAGGTAGAATCA ((((((((((((((((((((+)))))))))))))))))))) | 53.5 °C
CGCGCCACGTGTGATCTACAGCCGTTCGGC+GCCGAACGGCTGTAGATCACACGTGGCGCG ((((((((((((((((((((((((((((((+)))))))))))))))))))))))))))))) | 76.3 °C

We next turn to a different substance, shown below.
Dear colleague, I am looking for the recorded Tm of the following substance: AAAGTACATCAACATAGAGAATTGCATTTC+GAAATGCAATTCTCTATGTTGATGTACTTT ((((((((((((((((((((((((((((((+))))))))))))))))))))))))))))))
61.9 °C
